tested on: Enterococcus sp.; assay: In vitro antibacterial evaluation: minimum inhibitory concentration (MIC), broth dilution method; format: cell-based; conditions: Enterococcus faecalis (GC 4552); 18 hours at 35° C.
Binary label based on MIC Enterococcus faecalis (GC 4552) with cut-off 8 µg/mL: below gives YES, not below gives NO.

{"columns": ["MOLECULE", "SYSTEM_TESTED", "ASSIGNED_LABEL"],
 "data": [
  ["CC(C)CC(=O)OC1C(O)C(CO)OC(OC2C(CO)OC(Oc3ccc(CC4NC(=O)C(C(C)c5cccc(F)c5)NC(=O)CNC(=O)C(CO)NC(=O)C(C(O)C5CNC(=N)N5C5OC(CO)C(O)C(O)C5O)NC(=O)C(C(O)C5CNC(=N)N5)NC4=O)cc3)C(O)C2O)C1O (stereo not shown) [Example 264b]", "Enterococcus sp.", "NO"],
  ["CC(C1CCCCC1)C1NC(=O)CNC(=O)C(CO)NC(=O)C(C(O)C2CNC(=N)N2C2OC(CO)C(O)C(O)C2O)NC(=O)C(C(O)C2CNC(=N)N2)NC(=O)C(Cc2ccc(OC3OC(CO)C(OC4OC5COC6(OC5C(O)C4O)C4CC5CC(C4)CC6C5)C(O)C3O)cc2)NC1=O (stereo not shown)", "Enterococcus sp.", "YES"],
  ["N=C1NCC(C(O)C2NC(=O)C(Cc3ccc(OC4OC(CO)C(OC5OC6COC(CCc7ccccc7)OC6C(O)C5O)C(O)C4O)cc3)NC(=O)C(CC3CCCCC3)NC(=O)CNC(=O)C(CO)NC(=O)C(C(O)C3CNC(=N)N3C3OC(CO)C(O)C(O)C3O)NC2=O)N1 (stereo not shown)", "Enterococcus sp.", "YES"],
  ["COc1ccc(COCC2OC(OC3C(CO)OC(Oc4ccc(CC5NC(=O)C(C(C)c6ccccc6)NC(=O)CNC(=O)C(CO)NC(=O)C(C(O)C6CNC(=N)N6C6OC(CO)C(O)C(O)C6O)NC(=O)C(C(O)C6CNC(=N)N6)NC5=O)cc4)C(O)C3O)C(O)C(O)C2O)cc1F (stereo not shown)", "Enterococcus sp.", "NO"],
  ["CC(c1ccccc1)C1NC(=O)CNC(=O)C(CO)NC(=O)C(C(O)C2CNC(=N)N2C2OC(CO)C(O)C(O)C2O)NC(=O)C(C(O)C2CNC(=N)N2)NC(=O)C(Cc2ccc(OC3OC(CO)C(OC4OC(COCc5ccc(OCc6ccccc6)cc5)C(O)C(O)C4O)C(O)C3O)cc2)NC1=O (stereo not shown)", "Enterococcus sp.", "YES"]
]}

---

Recorded MIC Coagulase Negative Staphylococcus (GC 4551) values for a group of compounds are listed next.
test system: Staphylococcus sp.; experiment: In vitro antibacterial evaluation: minimum inhibitory concentration (MIC), broth dilution method; assay type: cell-based; settings: broth dilution, 18 hours at 35° C.
MEASURE: MIC Coagulase Negative Staphylococcus (GC 4551) (µg/mL)

{"columns": ["COMPOUND", "SYSTEM_TESTED", "MEASURE_UNIT", "EXPERIMENTAL_VALUE"],
 "data": [
  ["CC(c1ccccc1)C1NC(=O)CNC(=O)C(CO)NC(=O)C(CC2CNC(=N)N2C2OC(CO)C(O)C(O)C2O)NC(=O)C(CC2CNC(=N)N2)NC(=O)C(Cc2ccc3oc(-c4ccc5c(c4)Cc4ccccc4-5)nc3c2)NC1=O (centres unmarked)", "Staphylococcus sp.", "µg/mL", 4],
  ["CC(c1ccccc1)C1NC(=O)CNC(=O)C(CO)NC(=O)C(C(O)C2CNC(=N)N2C2OC(CO)C(O)C(O)C2O)NC(=O)C(C(O)C2CNC(=N)N2)NC(=O)C(Cc2ccc3oc(SCC(=O)c4ccc(Cl)cc4)nc3c2)NC1=O (centres unmarked)", "Staphylococcus sp.", "µg/mL", 4]
]}

---

Recorded MIC Enterococccus faecium (GC 4556) values for a group of molecules are listed next.
test system: Enterococcus sp.; experiment: In vitro antibacterial evaluation: minimum inhibitory concentration (MIC), broth dilution method; type: cell-based; conditions: broth dilution, 5×10^5 CFU/mL, 18 hours at 35° C.

{"columns": ["MOLECULE", "MIC Enterococccus faecium (GC 4556) (µg/mL)"],
 "data": [
  ["CC(c1ccccc1)C1NC(=O)CNC(=O)C(CO)NC(=O)C(C(O)C2CNC(=N)N2C2OC(CO)C(O)C(O)C2O)NC(=O)C(C(O)C2CNC(=N)N2)NC(=O)C(Cc2ccc(OC3OC(CO)C(OC4OC5COC(CC(C)(C)C)OC5C(O)C4O)C(O)C3O)cc2)NC1=O (stereo not shown)", 2],
  ["CC(c1ccccc1)C1NC(=O)CNC(=O)C(CO)NC(=O)C(C(O)C2CNC(=N)N2C2OC(CO)C(O)C(O)C2O)NC(=O)C(C(O)C2CNC(=N)N2)NC(=O)C(Cc2ccc(OC3OC(CO)C(OC4OC5COC(C67CC8CC(CC(C8)C6)C7)OC5C(O)C4O)C(O)C3O)cc2)NC1=O (stereo not shown)", 4],
  ["COC1CCC2(C)C(CCC3C2CCC2(C)C(C(C)CCC4OCC5OC(OC6C(CO)OC(Oc7ccc(CC8NC(=O)C(C(C)c9ccccc9)NC(=O)CNC(=O)C(CO)NC(=O)C(C(O)C9CNC(=N)N9C9OC(CO)C(O)C(O)C9O)NC(=O)C(C(O)C9CNC(=N)N9)NC8=O)cc7)C(O)C6O)C(O)C(O)C5O4)CCC32)C1 (stereo not shown)", 64],
  ["CCCCCCCC1OCC2OC(OC3C(CO)OC(Oc4ccc(CC5NC(=O)C(C(C)c6ccccc6)NC(=O)CNC(=O)C(CO)NC(=O)C(C(O)C6CNC(=N)N6C6OC(CO)C(O)C(O)C6O)NC(=O)C(C(O)C6CNC(=N)N6)NC5=O)cc4)C(O)C3O)C(O)C(O)C2O1 (stereo not shown)", 2],
  ["CCC(CC)C1OCC2OC(OC3C(CO)OC(Oc4ccc(CC5NC(=O)C(C(C)c6ccccc6)NC(=O)CNC(=O)C(CO)NC(=O)C(C(O)C6CNC(=N)N6C6OC(CO)C(O)C(O)C6O)NC(=O)C(C(O)C6CNC(=N)N6)NC5=O)cc4)C(O)C3O)C(O)C(O)C2O1 (stereo not shown)", 2],
  ["CC(c1ccccc1)C1NC(=O)CNC(=O)C(CO)NC(=O)C(C(O)C2CNC(=N)N2C2OC(CO)C(O)C(O)C2O)NC(=O)C(C(O)C2CNC(=N)N2)NC(=O)C(Cc2ccc(OC3OC(CO)C(OC4OC5COC(C6CCCC6)OC5C(O)C4O)C(O)C3O)cc2)NC1=O (stereo not shown)", 2]
]}

---

test system: Enterococcus sp.; test: In vitro antibacterial evaluation: minimum inhibitory concentration (MIC), broth dilution method; format: cell-based; details: broth dilution, 5×10^5 CFU/mL, 18 hours at 35° C.

{"columns": ["MOLECULE", "SYSTEM_TESTED", "MIC Enterococccus faecium (GC 4557) / µg/mL"],
 "data": [
  ["CC(c1ccccc1)C1NC(=O)CNC(=O)C(CO)NC(=O)C(C(O)C2CNC(=N)N2C2OC(CO)C(O)C(O)C2O)NC(=O)C(C(O)C2CNC(=N)N2)NC(=O)C(Cc2ccc(OC3OC(CO)C(OC4OC5COC(CC(C)(C)C)OC5C(O)C4O)C(O)C3O)cc2)NC1=O (stereo not drawn)", "Enterococcus sp.", 2],
  ["CC(c1ccccc1)C1NC(=O)CNC(=O)C(CO)NC(=O)C(C(O)C2CNC(=N)N2C2OC(CO)C(O)C(O)C2O)NC(=O)C(C(O)C2CNC(=N)N2)NC(=O)C(Cc2ccc(OC3OC(CO)C(OC4OC5COC(c6ccsc6)OC5C(O)C4O)C(O)C3O)cc2)NC1=O (stereo not drawn)", "Enterococcus sp.", 2],
  ["CCCCCC1OCC2OC(OC3C(CO)OC(Oc4ccc(CC5NC(=O)C(C(C)c6ccccc6)NC(=O)CNC(=O)C(CO)NC(=O)C(C(O)C6CNC(=N)N6C6OC(CO)C(O)C(O)C6O)NC(=O)C(C(O)C6CNC(=N)N6)NC5=O)cc4)C(O)C3O)C(O)C(O)C2O1 (stereo not drawn)", "Enterococcus sp.", 1],
  ["CCCC(CCC)C(=O)OCC1OC(OC2C(CO)OC(Oc3ccc(CC4NC(=O)C(C(C)c5ccccc5)NC(=O)CNC(=O)C(CO)NC(=O)C(C(O)C5CNC(=N)N5C5OC(CO)C(O)C(O)C5O)NC(=O)C(C(O)C5CNC(=N)N5)NC4=O)cc3)C(O)C2O)C(O)C(O)C1O (stereo not drawn) [Example 99c]", "Enterococcus sp.", 2],
  ["Cc1cccc(C2OCC3OC(OC4C(CO)OC(Oc5ccc(CC6NC(=O)C(C(C)c7ccccc7)NC(=O)CNC(=O)C(CO)NC(=O)C(C(O)C7CNC(=N)N7C7OC(CO)C(O)C(O)C7O)NC(=O)C(C(O)C7CNC(=N)N7)NC6=O)cc5)C(O)C4O)C(O)C(O)C3O2)c1 (stereo not drawn)", "Enterococcus sp.", 2]
]}
